experimental-target: human HPK1 protein (Homo sapiens, UniProt Q92918)
Construct: recombinant human HPK1 protein (a.a. 1-346) was expressed in Sf9 insect cells; GST (N); purchased Signalchem M23-11G; host or cells: Sf9 insect cells (baculovirus)
Sequence (Q92918 1-346): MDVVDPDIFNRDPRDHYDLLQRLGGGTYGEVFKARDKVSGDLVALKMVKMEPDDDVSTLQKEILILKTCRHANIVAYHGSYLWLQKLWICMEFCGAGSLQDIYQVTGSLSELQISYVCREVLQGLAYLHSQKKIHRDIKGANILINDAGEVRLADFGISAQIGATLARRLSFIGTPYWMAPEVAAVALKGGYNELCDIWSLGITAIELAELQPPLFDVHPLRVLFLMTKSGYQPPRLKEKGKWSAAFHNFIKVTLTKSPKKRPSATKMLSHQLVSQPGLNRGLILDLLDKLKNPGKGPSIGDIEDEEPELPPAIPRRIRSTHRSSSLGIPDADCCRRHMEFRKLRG
procedure-details: Human HPK1 protein TR-FRET assay
Assay type: biochemical
experimental-parameters: 1 mM ATP, Table 19
pIC50: −log10 of the molar value.
parameter-measured: pIC50

## Task I would be grateful if you could share the reported pIC50 for `Cc1cc2c(Oc3ccc4c(c3)[C@H](C)N(C(=O)Nc3cnc(NC5CCN(C)CC5)c(C(F)(F)F)c3)CC4)ccnc2[nH]1` .
## Result > 6.30

## Task What value of measured pIC50 is listed for CCN1CCN(Cc2ccc(NC(=O)N3CCc4ccc(Oc5ccnc6[nH]ccc56)cc4C3C)cc2C(F)(F)F)CC1 (stereo not drawn) ?
## Result 5.30 to 6.30

## Task # input compound: Cc1cc2c(Oc3ccc4c(c3)[C@H](C)N(C(=O)Nc3cnc(OC5CCCN(C)CC5)c(C(F)(F)F)c3)CC4)ccnc2[nH]1 (mixture of isomers) ; wanted: its pIC50
## Result 5.30 to 6.30

## Task pIC50 lookup needed for CCN1CCN(Cc2ccc(NC(=O)N3CCc4c(C)cc(Oc5ccnc6[nH]ccc56)cc4C3C)cc2C(F)(F)F)CC1 (single isomer, unassigned) [IV-4] , thanks.
## Result > 6.30

## Task What value of pIC50 has been reported for the following compound? Cc1cc2c(Oc3cnc4c(c3)CN(C(=O)Nc3cnc(OC5CCN(C)CC5)c(C(F)(F)F)c3)CC4C)ncnc2[nH]1 (stereo not drawn) [VII-13]
## Result > 6.30

## Task Param item = CCN1CCN(Cc2ccc(NC(=O)N3CCc4c(C)cc(Oc5ccnc6[nH]ccc56)cc4C3C)cc2C(F)(F)F)CC1 (stereo not drawn) [IV-5] ; retrieve measured pIC50.
## Result 5.30 to 6.30
